# target.of.assay: rat mGlu3 (Rattus norvegicus (Rat), UniProt P31422)
# Sequence (P31422 23-879): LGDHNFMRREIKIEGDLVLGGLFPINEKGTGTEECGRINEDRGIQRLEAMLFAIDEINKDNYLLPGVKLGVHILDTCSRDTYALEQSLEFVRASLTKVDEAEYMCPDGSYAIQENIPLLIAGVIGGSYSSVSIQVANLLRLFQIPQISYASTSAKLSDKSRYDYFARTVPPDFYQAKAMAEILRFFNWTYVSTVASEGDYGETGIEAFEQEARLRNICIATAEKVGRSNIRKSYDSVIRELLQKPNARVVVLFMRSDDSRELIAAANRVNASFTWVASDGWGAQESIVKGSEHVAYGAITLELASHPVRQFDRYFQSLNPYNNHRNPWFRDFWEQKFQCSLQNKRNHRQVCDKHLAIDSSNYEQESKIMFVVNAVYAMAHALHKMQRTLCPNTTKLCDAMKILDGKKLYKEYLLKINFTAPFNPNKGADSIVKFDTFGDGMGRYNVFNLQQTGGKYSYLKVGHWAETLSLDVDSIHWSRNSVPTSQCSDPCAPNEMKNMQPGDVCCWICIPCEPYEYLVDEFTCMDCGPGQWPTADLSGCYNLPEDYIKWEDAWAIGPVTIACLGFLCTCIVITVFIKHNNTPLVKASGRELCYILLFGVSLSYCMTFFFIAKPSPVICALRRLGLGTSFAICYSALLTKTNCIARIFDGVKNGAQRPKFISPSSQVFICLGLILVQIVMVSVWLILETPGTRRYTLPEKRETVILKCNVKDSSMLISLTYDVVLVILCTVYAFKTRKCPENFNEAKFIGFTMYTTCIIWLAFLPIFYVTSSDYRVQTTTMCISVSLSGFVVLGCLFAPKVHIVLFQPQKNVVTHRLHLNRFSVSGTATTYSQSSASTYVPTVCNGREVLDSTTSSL
# assay.text: mGlu3 Ca2+ flux assay
# Format: cell-based
# experimental.conditions: NAM potency, decrease of glutamate EC80 response; >30,000 = no measurable activity; >10,000 = no plateau; read-out: rat mGlu3 IC50
# Experimental: The cells were grown overnight at 37° C. in the presence of 5% CO2. […] Dye was removed, 20 μL of assay buffer was added, and the plate was incubated for 10 minutes at room temperature. Ca^2+ flux was measured using the Functional Drug Screening System (FDSS7000, Hamamatsu, Japan). […] Calcium fluorescence measures were recorded as fold over basal fluorescence; raw data was then normalized to the maximal response to glutamate. […]
IC50 reference
I only need the number, in nM, no unit after it.

// below: answered compounds
# given.smiles, IC50 (nM)
data = [
    ("CN(Cc1cc2n(n1)CCN(c1ccc(F)cc1)C2=O)c1ccccc1F", 876),
    ("Cc1ccc(NCc2cc3n(n2)[C@@H](C)CN(c2ccc(F)cc2)C3=O)cc1", 1740),
    ("O=C1c2cc(CNc3ccc(Cl)cc3F)nn2CCN1c1ccc(F)cc1", 856),
    ("Cc1ccc(NCc2cc3n(n2)[C@H](C)CN(c2ccc(F)cc2)C3=O)cc1", 1830),
    ("Cc1ccccc1NCc1cc2n(n1)[C@@H](C)CN(c1ccc(F)cc1)C2=O", 3340),
    ("O=C1c2cc(CNc3ccccc3Cl)nn2CCN1c1ccc(F)cc1", 1270),
]

IC50 lookup needed for O=C1c2cc(CNc3ccc4c(c3)OC(F)(F)O4)nn2CCN1c1ccc(F)cc1 , thanks.
2880

Endpoint output: IC50 of C[C@@H]1CN(c2ccc(F)cc2)C(=O)c2cc(CNc3ccc(CC#N)cc3)nn21 . Value?
1460

Given the entry COc1ccc(N(C)Cc2cc3n(n2)CCN(c2cc(F)ccc2Cl)C3=O)cc1 , report its measured IC50.
2020

GET /values?readout=IC50&item= O=C1c2cc(CNc3cccc(Cl)n3)nn2CCN1c1ccc(F)cc1
1180

What value of IC50 has been recorded for this entry: COc1ccc(N(C)Cc2cc3n(n2)CCN(c2ccc(Cl)cc2)C3=O)cc1
585

Quick one: IC50 of C[C@H]1CN(c2ccc(F)cc2)C(=O)c2cc(CNc3ccc(F)c(F)c3)nn21 ?
1170

meta.source: patent US9676782B2
